tested on: VZV (varicella zoster virus, strain ELLEN); assay: VZV antiviral plaque reduction assay in WI-38 cell culture; type: cell-based; settings: Human alphaherpesvirus 3, WI-38 monolayers, at least 50% plaque reduction vs virus controls, 5-7 days at 37° C., read-out: ID50 VZV
pIC50: −log10 of the molar value.
measured-metric: pIC50

Example entries begin here.
INSERT INTO measurements (structure_notation, data_value) VALUES
  ('O=c1[nH]c(=O)n([C@@H]2CO[C@H](CO)[C@@H](O)C2)cc1I', '3.57 to 4.17'),
  ('Nc1ncnc2c1ncn2[C@@H]1CO[C@H](CO)[C@@H](O)C1', 4.42),
  ('Cc1cn([C@@H]2CO[C@H](CO)[C@@H](O)C2)c(=O)[nH]c1=O', '3.41 to 4.41'),
  ('Nc1ccn([C@@H]2CO[C@H](CO)[C@@H](O)C2)c(=O)n1', '5.10 to 5.40'),
  ('O=c1[nH]c(=O)n([C@@H]2CO[C@H](CO)[C@@H](O)C2)cc1/C=C/Br', '4.84 to 5.24');

From here, focus on the item given below.
Fill in: VZV (varicella zoster virus, strain ELLEN) pIC50 for Nc1nc2c(ncn2[C@@H]2CO[C@H](CO)[C@@H](O)C2)c(=O)[nH]1 = 4.44 to 4.74
